Recorded values, source patent US11702417B2.

# Tested on: FD (familial dysautomonia) IKBKAP minigene, exon 20 inclusion, in HEK293T cells
# TEST PROTOCOL: Primary splicing assay (FD IKBKAP minigene, Firefly/Renilla luciferase reporter in HEK293T)
# Format: cell-based, human
# CONDITION NOTES: Homo sapiens, HEK-293T; max efficacy in Primary Assay; Firefly/Renilla ratio, kinetin and DMSO as positive and negative controls; 24 hours of treatment; read-out: Emax (%)
OBSERVED PROPERTY: Emax (%)
One number for each entry, in %.

[[record]]
molecule = "OCCn1ccc2c(NCc3ccncc3)nc(Cl)nc21"
tested_system = "FD (familial dysautomonia) IKBKAP minigene, exon 20 inclusion, in HEK293T cells"
observed_property = "Emax"
recorded_number = 256

[[record]]
molecule = "Clc1nc(NCc2ccncn2)c2nc(C3CC3)[nH]c2n1"
tested_system = "FD (familial dysautomonia) IKBKAP minigene, exon 20 inclusion, in HEK293T cells"
observed_property = "Emax"
recorded_number = 127

[[record]]
molecule = "Nc1nc(NCc2ccco2)c2nn[nH]c2n1"
tested_system = "FD (familial dysautomonia) IKBKAP minigene, exon 20 inclusion, in HEK293T cells"
observed_property = "Emax"
recorded_number = 54

[[record]]
molecule = "CC(C)COc1nc2c(NCc3ccco3)nc(Cl)nc2[nH]1"
tested_system = "FD (familial dysautomonia) IKBKAP minigene, exon 20 inclusion, in HEK293T cells"
observed_property = "Emax"
recorded_number = 108

[[record]]
molecule = "FC1(F)CC(COc2nc3c(NCc4ccco4)nc(Cl)nc3[nH]2)C1"
tested_system = "FD (familial dysautomonia) IKBKAP minigene, exon 20 inclusion, in HEK293T cells"
observed_property = "Emax"
recorded_number = 238

[[record]]
molecule = "Fc1cnccc1CNc1nc(Cl)nc2[nH]ccc12"
tested_system = "FD (familial dysautomonia) IKBKAP minigene, exon 20 inclusion, in HEK293T cells"
observed_property = "Emax"
recorded_number = 191


Could you tell me Emax for each of these compounds? They are listed below.
1. Clc1ccccc1CNc1[nH]cnc2ncnc1-2
2. Clc1nc(NCc2ccncn2)c2cn[nH]c2n1
3. Cn1cccc1CNc1nc(Cl)nc2[nH]ccc12
4. FC(F)(F)COc1nc2c(NCc3cscn3)nc(Cl)nc2[nH]1
5. c1nc2nc[nH]c(NC3CCCCCC3)c-2n1

Result:
1: 59; 2: 153; 3: 12.3; 4: 134; 5: 43.7
